Assay: clinical
Settings: human, in vivo, Cmax, 400 mg per day, PK Day 3
PROPERTY_LABEL: Cmax (ng/mL)
# unit: ng/mL | format: bare number

Consider the compound `COc1ccc2c(O[C@H]3CCN4C(=O)N(C)CCCC/C=C\[C@@H]5C[C@@]5(C(=O)NS(=O)(=O)C5(C)CC5)NC(=O)[C@@H]4C3)cc(-c3nc(C(F)(F)F)cs3)nc2c1C` . State its measured Cmax. 1370

----------
Test: in vitro
Details: human, Caco-2, pH 7.4
Protocol: Caco-2 cells were grown to confluence on collagen-coated, microporous, polycarbonate membranes in 12-well Costar Transwell plates. 5 μM of compound 52 was prepared in Hanks balanced salt solution containing 10 mM HEPES and 15 mM glucose at a pH of 7.4. Cell monolayers were dosed on the apical side (A-to-B) or basolateral side (B-to-A). Samples were taken from the receiver chambers at 120 min and quantified by LC-MS/MS.
PROPERTY_LABEL: efflux ratio
Lab note: write the figure by itself, no unit.

Entry COc1ccc2c(O[C@H]3CCN4C(=O)N(C)CCCC/C=C\[C@@H]5C[C@@]5(C(=O)NS(=O)(=O)C5(C)CC5)NC(=O)[C@@H]4C3)cc(-c3nc(C(F)(F)F)cs3)nc2c1C [Compound 52] needs its efflux ratio filled in; supply it. 2.7

----------
Assay: clinical
Details: human, in vivo, 200 mg, Cmax, single dose 200 mg, human volunteers
PROPERTY_LABEL: Cmax (ng/mL)
Give your result in ng/mL as a bare value.

Fill in Cmax for record COc1ccc2c(O[C@H]3CCN4C(=O)N(C)CCCC/C=C\[C@@H]5C[C@@]5(C(=O)NS(=O)(=O)C5(C)CC5)NC(=O)[C@@H]4C3)cc(-c3nc(C(F)(F)F)cs3)nc2c1C [Compound 52] 982

----------
Experiment: clinical
Conditions: human, in vivo, 50 mg, Cmax, single dose 50 mg, human volunteers
PROPERTY_LABEL: Cmax (ng/mL)
The reply should contain only the number, in ng/mL.

Give the reported value of Cmax for this record: COc1ccc2c(O[C@H]3CCN4C(=O)N(C)CCCC/C=C\[C@@H]5C[C@@]5(C(=O)NS(=O)(=O)C5(C)CC5)NC(=O)[C@@H]4C3)cc(-c3nc(C(F)(F)F)cs3)nc2c1C [Compound 52] 346

----------
Assay: clinical
Details: human, in vivo, 100 mg, Tmax, single dose 100 mg, human volunteers
PROPERTY_LABEL: Tmax (h)
Just the number please, in h, no unit attached.

Give the value of Tmax reported for the following: COc1ccc2c(O[C@H]3CCN4C(=O)N(C)CCCC/C=C\[C@@H]5C[C@@]5(C(=O)NS(=O)(=O)C5(C)CC5)NC(=O)[C@@H]4C3)cc(-c3nc(C(F)(F)F)cs3)nc2c1C [Compound 52] 3

----------
Assay: in vivo
Conditions: male, cynomolgus monkey, iv, 2 mg/kg
PROPERTY_LABEL: half-life (h)
Report only the number, with the unit h understood.

State its half-life for this molecule: `COc1ccc2c(O[C@H]3CCN4C(=O)N(C)CCCC/C=C\[C@@H]5C[C@@]5(C(=O)NS(=O)(=O)C5(C)CC5)NC(=O)[C@@H]4C3)cc(-c3nc(C(F)(F)F)cs3)nc2c1C` 10.3

----------
Assay: in vivo
Settings: male, cynomolgus monkey, po, 2 mg/kg
PROPERTY_LABEL: half-life (h)
# number only, unit h dropped from output

Dear colleague, please send me the reported half-life for `COc1ccc2c(O[C@H]3CCN4C(=O)N(C)CCCC/C=C\[C@@H]5C[C@@]5(C(=O)NS(=O)(=O)C5(C)CC5)NC(=O)[C@@H]4C3)cc(-c3nc(C(F)(F)F)cs3)nc2c1C` when you can. 7.6
